B1: STK38L (parent)
chain: FLPGGDMMTLLMKKDTLTEEETQF

Variants of: B1
Test: protein stability index of a GFP-peptide fusion (GPS, HEK-293T) (PSI 1-6); higher = more stable;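 further: lentivirally expressed fusions sorted by FACS into six bins by GFP to DsRed ratio, PSI derived from sequencing read proportions per bin multiplied by bin number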
Details: c terminus: a fixed tail appended
Rule: protein stability index of 4 or more gives condition met; anything lower gives condition not met.

# mutation name, label class
rows = [
    ("L10G", "condition not met"),
    ("K14F", "condition not met"),
    ("L10D", "condition met"),
]

Attention now shifts to the item below.
(Q) Threshold query (protein stability index >= 4) on `E20D`
(A) condition not met
